measured on: JAK1 (Homo sapiens (Human), UniProt P23458)
Sequence (P23458 850-1154): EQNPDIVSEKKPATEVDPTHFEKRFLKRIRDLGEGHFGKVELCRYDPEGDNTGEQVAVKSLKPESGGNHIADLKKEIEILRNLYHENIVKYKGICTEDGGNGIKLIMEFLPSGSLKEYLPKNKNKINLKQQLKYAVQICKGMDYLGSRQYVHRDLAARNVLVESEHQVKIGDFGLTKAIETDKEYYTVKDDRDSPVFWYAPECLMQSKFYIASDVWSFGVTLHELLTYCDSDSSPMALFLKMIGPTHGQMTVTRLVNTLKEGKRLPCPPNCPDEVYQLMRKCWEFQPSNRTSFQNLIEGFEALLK
measurement protocol: JAK kinase assay (HTRF), JAK1
experimental context: catalytic domain, ATP at Km (7 μM)
Entries and their pEC50 values follow.
Entry type: numeric. Quantity: pEC50, the -log10 of concentration in molar units.

[ask] Record request: pEC50 value, item `C[C@H](NC(=O)[C@H]1CCN(c2ncnc3[nH]ccc23)CC12CC2)c1ccc(C#N)cc1`
[reply] 8.92

[ask] Input `O=C(NCC1CC(F)(F)C1)[C@H]1CCN(c2ncnc3[nH]ccc23)CC12CC2`
[reply] 8.35

---

measurement protocol: in vitro metabolic stability in human liver microsomes
Assay type: in vitro ADME
experimental context: human, liver microsomes, 0.5 μM compound, 0.5 mg/mL microsomes, NADPH, 40 min, 37° C.; read-out: Human liver microsome Clapp (apparent intrinsic clearance)
Entries and their CLint scaled at 0.5 μM values follow.
API: value field is a number in mL/min/kg; no unit string.

Below, 2 compounds whose answers are already recorded.
compound	val
O=C(N[C@@H](CO)[C@H](O)c1ccc(F)cn1)[C@H]1CCN(c2ncnc3[nH]ccc23)CC12CC2 (single isomer, unassigned)	50
C[C@H](NC(=O)[C@H]1CCN(c2ncnc3[nH]ccc23)CC12CC2)[C@@H](O)c1ccc(C#N)cc1	166

[ask] Record request: CLint scaled at 0.5 μM value, item `O=C(N[C@@H](CO)c1ccc(F)cc1F)[C@H]1CCN(c2ncnc3[nH]ccc23)CC12CC2`
[reply] 69

[ask] Input `O=C(NC[C@@H](O)C1CCCC1)[C@H]1CCN(c2ncnc3[nH]ccc23)CC12CC2`
[reply] 159

[ask] Input `N#Cc1ccc(CNC(=O)[C@H]2CCN(c3ncnc4[nH]ccc34)CC23CC3)cc1`
[reply] 82

[ask] Input N#Cc1ccc(CNC(=O)C2CCN(c3ncnc4[nH]ccc34)CC23CC3)nc1 (stereo not drawn)
[reply] 139

[ask] Input `N#Cc1ccc(CNC(=O)[C@H]2CCN(c3ncnc4[nH]ccc34)CC23CC3)c(F)c1`
[reply] 166

---

measured on: UniProt P23458
measurement protocol: JAK kinase assay (HTRF), JAK1
experimental context: catalytic domain, ATP at Km (7 μM)
Description: Human baculovirus-expressed JAK1, 2, 3 and TYK2 were purchased from Carna Biosciences, Inc. All four purified enzymes contain only the catalytic domain. […] Inhibition of phosphorylation of a synthetic peptide was measured in an HTRF-based assay using the TK substrate-Biotin from the Cisbio HTRFKinEASE TK kit. […] The HTRF signal is read using an Envision plate reader.
measured parameter: log10 EC50 (log10 of the value in nM)
Log scale reminder: EC50 in nM, then log10 taken.

Below, 4 compounds whose answers are already recorded.
compound	log10 EC50
C[C@H](NC(=O)[C@H]1CCN(c2ncnc3[nH]ccc23)CC12CC2)[C@@H](O)c1ccc(F)cc1 [Example 6]	-0.22
O=C(NCc1ccccc1)C1CCN(c2ncnc3[nH]ccc23)CC12CC2 (centres unmarked) [Example 95]	0.93
CCc1cc(C#N)ccc1[C@H](CO)NC(=O)[C@H]1CCN(c2ncnc3[nH]ccc23)CC12CC2 [Example 89]	0.88
C[C@H](NC(=O)[C@H]1CCN(c2ncnc3[nH]ccc23)CC12CC2)[C@@H](O)c1ccccn1 [Example 104]	1.00

For the next question, use this compound.
[ask] Record request: log10 EC50 value, item C[C@H](NC(=O)[C@H]1CCN(c2ncnc3[nH]ccc23)CC12CC2)[C@@H](O)c1ccc(F)cn1 [Example 41]
[reply] 0.40

---

measured on: TYK2 (Homo sapiens (Human), UniProt P29597)
Sequence (P29597 871-1187): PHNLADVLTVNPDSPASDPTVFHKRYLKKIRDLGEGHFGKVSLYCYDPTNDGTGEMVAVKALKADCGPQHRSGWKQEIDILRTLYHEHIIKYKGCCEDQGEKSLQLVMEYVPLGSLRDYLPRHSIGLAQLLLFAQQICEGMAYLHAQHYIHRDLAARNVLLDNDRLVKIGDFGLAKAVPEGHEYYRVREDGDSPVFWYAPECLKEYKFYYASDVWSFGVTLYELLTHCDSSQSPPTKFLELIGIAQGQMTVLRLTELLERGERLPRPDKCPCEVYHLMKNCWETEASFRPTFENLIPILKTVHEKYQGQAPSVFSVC
measurement protocol: JAK kinase assay (HTRF), TYK2
experimental context: catalytic domain, ATP at Km (13 μM)
measured parameter: EC50 (nM)
API: value field is a number in nM; no unit string.

Below, 3 compounds whose answers are already recorded.
compound	EC50 (nM)
N#CCC1(COC(=O)C2CCN(c3ncnc4[nH]ccc34)CC23CC3)CC1 (stereo not shown)	70
O=C(OCC1CC(F)(F)C1)C1CCN(c2ncnc3[nH]ccc23)CC12CC2 (stereo not shown)	68
O=C(N[C@@H](CO)[C@@H](O)c1ccc(F)cn1)[C@H]1CCN(c2ncnc3[nH]ccc23)CC12CC2	153

For the next question, use this compound.
[ask] Record request: EC50 value, item O=C(NCc1cccc(F)c1)C1CCN(c2ncnc3[nH]ccc23)CC12CC2 (stereo not shown)
[reply] 117

---

measured on: JAK2 (Homo sapiens (Human), UniProt O60674)
Sequence (O60674 849-1124): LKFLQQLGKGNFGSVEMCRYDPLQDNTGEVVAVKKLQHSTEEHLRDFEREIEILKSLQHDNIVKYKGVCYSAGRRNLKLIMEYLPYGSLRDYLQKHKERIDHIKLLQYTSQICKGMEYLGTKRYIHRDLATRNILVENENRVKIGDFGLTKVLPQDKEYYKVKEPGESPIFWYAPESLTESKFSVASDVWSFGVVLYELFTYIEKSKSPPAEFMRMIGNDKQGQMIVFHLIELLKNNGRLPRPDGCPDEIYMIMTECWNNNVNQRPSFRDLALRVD
measurement protocol: JAK kinase assay (HTRF), JAK2
experimental context: catalytic domain, ATP at Km (4 μM)
Entries and their EC50 values follow.
API: value field is a number in nM; no unit string.

Below, 5 compounds whose answers are already recorded.
compound	uom	EC50
N#Cc1ccc(CNC(=O)C2CCN(c3ncnc4[nH]ccc34)CC23CC3)nc1 (centres unmarked) [Example 76]	nM	43.3
C[C@@](CO)(NC(=O)[C@H]1CCN(c2ncnc3[nH]ccc23)CC12CC2)c1ccc(C#N)cc1 [Example 28]	nM	5.5
N#Cc1ccc([C@@H](O)CNC(=O)[C@H]2CCN(c3ncnc4[nH]ccc34)CC23CC3)nc1 [Example 36]	nM	8.7
O=C(NCC1CC(F)(F)C1)C1CCN(c2ncnc3[nH]ccc23)CC12CC2 (centres unmarked) [Example 56]	nM	8.3
N#Cc1ccc([C@H](O)CNC(=O)[C@@H]2CCN(c3ncnc4[nH]ccc34)CC23CC3)cc1 [Example 142]	nM	179

[ask] Record request: EC50 value, item O=C(N[C@@H](CO)c1ccc(F)cc1F)[C@H]1CCN(c2ncnc3[nH]ccc23)CC12CC2 [Example 34]
[reply] 3.7

[ask] Input O=C(NCC1(CO)CC(F)(F)C1)[C@H]1CCN(c2ncnc3[nH]ccc23)CC12CC2 [Example 23]
[reply] 2.7

[ask] Input Cc1ccc([C@H](O)[C@H](C)NC(=O)[C@H]2CCN(c3ncnc4[nH]ccc34)CC23CC3)cc1 [Example 73]
[reply] 8.3

[ask] Input O=C(NC[C@@H](O)C1CCCC1)[C@H]1CCN(c2ncnc3[nH]ccc23)CC12CC2 [Example 32]
[reply] 5.2

[ask] Input CCc1cc(C#N)ccc1[C@@H](C)NC(=O)[C@H]1CCN(c2ncnc3[nH]ccc23)CC12CC2 [Example 121]
[reply] 44.7

[ask] Input O=C(NCC(O)C1CCCCC1)[C@H]1CCN(c2ncnc3[nH]ccc23)CC12CC2 (some centres unmarked) [Example 2]
[reply] 1.3

---

Entries and their EC50 values follow.
measured on: TYK2 (Homo sapiens (Human), UniProt P29597)
measurement protocol: JAK kinase assay (HTRF), TYK2
experimental context: catalytic domain, ATP at Km (13 μM)
Procedure: Human baculovirus-expressed JAK1, 2, 3 and TYK2 were purchased from Carna Biosciences, Inc. All four purified enzymes contain only the catalytic domain. […] Inhibition of phosphorylation of a synthetic peptide was measured in an HTRF-based assay using the TK substrate-Biotin from the Cisbio HTRFKinEASE TK kit. […] The HTRF signal is read using an Envision plate reader. […]
API: value field is a number in nM; no unit string.

compound	measured parameter	uom	val
N#Cc1ccc([C@@H](O)CNC(=O)[C@H]2CCN(c3ncnc4[nH]ccc34)CC23CC3)nc1 [Example 36]	EC50	nM	70.5

[ask] Record request: EC50 value, item C[C@H](NC(=O)[C@H]1CCN(c2ncnc3[nH]ccc23)CC12CC2)[C@@H](O)c1ccc(F)c(F)c1 [Example 149]
[reply] 4.2

[ask] Input COc1cc(F)ccc1[C@H](CO)NC(=O)[C@H]1CCN(c2ncnc3[nH]ccc23)CC12CC2 [Example 109]
[reply] 243

[ask] Input O=C(N[C@H](CO)C(=O)OC1CCCC1)[C@H]1CCN(c2ncnc3[nH]ccc23)CC12CC2 [Example 96]
[reply] 250

[ask] Input C[C@H](NC(=O)[C@H]1CCN(c2ncnc3[nH]ccc23)CC12CC2)[C@@H](O)c1cccc(F)c1 [Example 150]
[reply] 21

[ask] Input N#Cc1ccc(CNC(=O)[C@H]2CCN(c3ncnc4[nH]ccc34)CC23CC3)cc1 [Example 13]
[reply] 81.1

[ask] Input C[C@H](NC(=O)[C@H]1CCN(c2ncnc3[nH]ccc23)CC12CC2)c1ccc(C#N)cc1 [Example 22]
[reply] 43.9

---

Entries and their CLint scaled at 0.5 μM values follow.
measurement protocol: in vitro metabolic stability in human liver microsomes
Type: in vitro ADME
experimental context: human, liver microsomes, 0.5 μM compound, 0.5 mg/mL microsomes, NADPH, 40 min, 37° C.; read-out: Human liver microsome Clapp (apparent intrinsic clearance)

molecule	CLint scaled at 0.5 μM
O=C(NC[C@H](O)C1CCCCC1)[C@H]1CCN(c2ncnc3[nH]ccc23)CC12CC2 [Example 15]	> 200 mL/min/kg
O=C(OCC1(CO)CCCCC1)[C@H]1CCN(c2ncnc3[nH]ccc23)CC12CC2 [Example 161]	> 200 mL/min/kg
Cc1cc([C@H](O)[C@H](C)NC(=O)[C@H]2CCN(c3ncnc4[nH]ccc34)CC23CC3)ccc1F [Example 40]	> 200 mL/min/kg
C[C@H](NC(=O)[C@H]1CCN(c2ncnc3[nH]ccc23)CC12CC2)c1ccc(C#N)c(F)c1 [Example 14]	> 200 mL/min/kg
O=C(N[C@H](CO)C(=O)OCC1CC(F)(F)C1)[C@H]1CCN(c2ncnc3[nH]ccc23)CC12CC2 [Example 42]	> 200 mL/min/kg

[ask] Record request: CLint scaled at 0.5 μM value, item C[C@@](CO)(NC(=O)[C@H]1CCN(c2ncnc3[nH]ccc23)CC12CC2)c1ccc(C#N)cc1 [Example 28]
[reply] 132 mL/min/kg

[ask] Input O=C(N[C@H](CO)c1ccccc1)C1CCN(c2ncnc3[nH]ccc23)CC12CC2 (some centres unmarked) [Example 127]
[reply] 44 mL/min/kg

[ask] Input O=C(NCC1(CO)CCCC1)C1CCN(c2ncnc3[nH]ccc23)CC12CC2 (centres unmarked) [Example 58]
[reply] 143 mL/min/kg
